targetOrSystem: Nitric oxide synthase oxygenase (Bacillus subtilis (strain 168), UniProt O34453)
Sequence (O34453 whole entry): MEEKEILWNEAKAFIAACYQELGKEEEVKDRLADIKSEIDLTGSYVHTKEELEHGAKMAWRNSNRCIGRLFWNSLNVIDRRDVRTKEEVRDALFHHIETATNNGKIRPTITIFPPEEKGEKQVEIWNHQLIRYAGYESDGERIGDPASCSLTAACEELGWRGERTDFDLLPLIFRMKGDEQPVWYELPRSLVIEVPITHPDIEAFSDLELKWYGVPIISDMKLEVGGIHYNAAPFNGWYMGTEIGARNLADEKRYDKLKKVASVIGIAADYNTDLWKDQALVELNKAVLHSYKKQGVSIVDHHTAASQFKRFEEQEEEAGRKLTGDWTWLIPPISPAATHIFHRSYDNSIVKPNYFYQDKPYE
experimentDescription: Imidazole Spin Shift Assay
pKd: −log10 of the molar value.
valueType: pKd

CNCCN(C)c1cncc(CCc2cc(C)cc(N)n2)c1: 4.24
Cc1cc(N)nc(CCc2cncc(CCc3cc(C)nc(N)c3)c2)c1: 5.30
Cc1cc(N)nc(CCc2ccc(CCCN)c(CCc3cc(C)cc(N)n3)c2)c1: 5.06
Cc1cc(N)nc(CCc2cc(C#N)cc(CCc3cc(C)cc(N)n3)c2)c1: 5.35
N=C(Nc1cccc(COC[C@H]2C[C@H](OCc3cccc(NC(=N)c4cccs4)c3)CN2)c1)c1cccs1: 5.11
NC(=Nc1cccc(OCCOc2cccc(N=C(N)c3cccs3)c2)c1)c1cccs1: 3.90
Cc1cc(N)nc(CCc2cccc([C@H](N)Cc3cc(C)cc(N)n3)c2)c1: 4.59

---

targetOrSystem: Nitric oxide synthase oxygenase (Bacillus subtilis (strain 168), UniProt O34453)
Sequence (O34453 whole entry): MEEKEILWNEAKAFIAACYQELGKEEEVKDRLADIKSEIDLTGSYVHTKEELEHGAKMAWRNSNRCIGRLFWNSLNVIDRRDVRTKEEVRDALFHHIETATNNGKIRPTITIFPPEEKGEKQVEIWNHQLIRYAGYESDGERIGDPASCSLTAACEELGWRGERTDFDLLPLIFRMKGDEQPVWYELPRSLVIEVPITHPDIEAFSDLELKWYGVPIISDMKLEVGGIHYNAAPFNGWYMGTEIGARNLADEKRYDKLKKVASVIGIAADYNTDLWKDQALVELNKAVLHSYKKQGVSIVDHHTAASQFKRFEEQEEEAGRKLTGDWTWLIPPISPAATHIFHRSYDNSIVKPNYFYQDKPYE
experimentDescription: Imidazole Spin Shift Assay
valueType: Kd (µM)

N=C(Nc1cccc(CNC[C@@H]2CCCN2)c1)c1cccs1: 17.8
N=C(Nc1cccc(CCc2cccc(NC(=N)c3cccs3)c2)c1)c1cccs1: 99
CNCCN(C)c1cccc(CCc2cc(C)cc(N)n2)c1: 50.5
CNCCN(c1cc(F)cc(CCc2cc(C)cc(N)n2)c1)C1CC1: 62.1
N=C(Nc1cccc(COC[C@@H]2C[C@H](OCc3cccc(NC(=N)c4cccs4)c3)CN2)c1)c1cccs1: 11
